Molecular target: Cin5 (UniProt P40917)
Sequence: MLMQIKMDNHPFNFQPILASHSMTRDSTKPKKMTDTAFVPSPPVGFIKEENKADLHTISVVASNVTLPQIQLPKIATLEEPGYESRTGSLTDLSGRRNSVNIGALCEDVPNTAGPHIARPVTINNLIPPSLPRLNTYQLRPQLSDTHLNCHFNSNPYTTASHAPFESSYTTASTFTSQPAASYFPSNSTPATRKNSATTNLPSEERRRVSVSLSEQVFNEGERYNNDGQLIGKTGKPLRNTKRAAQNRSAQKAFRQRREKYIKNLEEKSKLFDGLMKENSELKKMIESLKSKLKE
Test: PBM E-score (8-mer binding enrichment) (E-score (-0.5 to 0.5)); higher = stronger / more preferred TF binding
Conditions: protein concentration: 100 nM; construct: GST-full length
The full ranking holds about 33,000 sequences; the median of “E-score (-0.5 to 0.5)” is about -0.0059, and the highest 2% start at about 0.26. The entries come from a sample that favours the highest values as a whole.
Mark yes (1) for reported PBM E-score of 0.1 or greater; mark no (0) for anything smaller.

sequence_input=ACACATAC tested_system="Cin5 (UniProt P40917)" answer_label="no (0)"
sequence_input=AAGGATCG tested_system="Cin5 (UniProt P40917)" answer_label="no (0)"
sequence_input=GAATCCTA tested_system="Cin5 (UniProt P40917)" answer_label="no (0)"
sequence_input=GATTCTCC tested_system="Cin5 (UniProt P40917)" answer_label="no (0)"
sequence_input=GCGCATTA tested_system="Cin5 (UniProt P40917)" answer_label="yes (1)"
sequence_input=CAGGAGCG tested_system="Cin5 (UniProt P40917)" answer_label="no (0)"
sequence_input=AGATTCTC tested_system="Cin5 (UniProt P40917)" answer_label="no (0)"
sequence_input=TATACTGA tested_system="Cin5 (UniProt P40917)" answer_label="yes (1)"
sequence_input=AATACTGG tested_system="Cin5 (UniProt P40917)" answer_label="yes (1)"
sequence_input=ACTACCAC tested_system="Cin5 (UniProt P40917)" answer_label="no (0)"
sequence_input=ATGCGCAA tested_system="Cin5 (UniProt P40917)" answer_label="yes (1)"
sequence_input=CTACTTCA tested_system="Cin5 (UniProt P40917)" answer_label="no (0)"
sequence_input=ATACTTCA tested_system="Cin5 (UniProt P40917)" answer_label="yes (1)"
sequence_input=CAATAAGG tested_system="Cin5 (UniProt P40917)" answer_label="no (0)"
sequence_input=AGATCTGA tested_system="Cin5 (UniProt P40917)" answer_label="no (0)"
sequence_input=CAATTGGC tested_system="Cin5 (UniProt P40917)" answer_label="yes (1)"
sequence_input=GTACTTCA tested_system="Cin5 (UniProt P40917)" answer_label="yes (1)"
sequence_input=CTCTGGAC tested_system="Cin5 (UniProt P40917)" answer_label="no (0)"
sequence_input=AGCCAAAA tested_system="Cin5 (UniProt P40917)" answer_label="no (0)"

* * *

Target: Cin5 (UniProt P40917)
Sequence: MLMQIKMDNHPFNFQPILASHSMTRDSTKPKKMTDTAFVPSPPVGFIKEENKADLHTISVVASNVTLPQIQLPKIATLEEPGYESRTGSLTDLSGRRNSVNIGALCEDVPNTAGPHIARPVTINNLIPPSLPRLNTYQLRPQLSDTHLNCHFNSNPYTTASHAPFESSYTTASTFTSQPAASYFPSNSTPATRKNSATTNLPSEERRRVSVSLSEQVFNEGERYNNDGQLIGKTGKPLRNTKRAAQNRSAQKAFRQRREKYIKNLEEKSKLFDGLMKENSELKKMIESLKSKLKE
Test: PBM E-score (8-mer binding enrichment) (E-score (-0.5 to 0.5)); higher = stronger / more preferred TF binding
Conditions: protein concentration: 100 nM; construct: GST-full length
In all, about 33,000 sequences were measured (“E-score (-0.5 to 0.5)”: median about -0.0059, highest 2% from about 0.26 on). Only a selection was taken, and the highest values are over-represented in it overall.
Recorded Endpoint: PBM E-score

sequence_input=CAATAATC test_value=0.233
sequence_input=ACCAATAG test_value=-0.123
sequence_input=CTATCGAA test_value=0.0827
sequence_input=ATAATCAT test_value=0.377
sequence_input=AGGCTATA test_value=-0.161
sequence_input=ATCAATAG test_value=0.0422
sequence_input=CACCCAGG test_value=-0.237
sequence_input=ATACTTCG test_value=0.129
sequence_input=TAATAAAA test_value=0.235
sequence_input=CTTTGCCC test_value=-0.199
sequence_input=AACAATAT test_value=0.345
sequence_input=TCCACTAA test_value=0.0246
sequence_input=GGCTTTTA test_value=-0.223
sequence_input=GAAATTAA test_value=0.273
sequence_input=AAGCAACA test_value=0.162
sequence_input=ATAATCAA test_value=0.227
sequence_input=CAATCCCG test_value=0.259
sequence_input=ATTGGGTG test_value=0.282
sequence_input=ATTATATG test_value=0.249
sequence_input=ATCATATG test_value=0.169
sequence_input=CATTGCTC test_value=-0.157
sequence_input=AATCCCGA test_value=0.26
sequence_input=ATTACGCA test_value=0.25
sequence_input=ATTGGGTC test_value=0.13
sequence_input=AAACCGCA test_value=-0.142
sequence_input=ATTTTGTA test_value=0.286
sequence_input=ATCCGCGG test_value=0.271
sequence_input=ATTAATTA test_value=0.259
sequence_input=CAATCCCA test_value=-0.0745
sequence_input=ATAATCAC test_value=0.233
sequence_input=AGCTGATA test_value=0.0998
sequence_input=CAAATTAA test_value=0.191
sequence_input=TATCCCGA test_value=0.125
sequence_input=CCGCGCGC test_value=0.0301
sequence_input=ATTAATTC test_value=0.238
sequence_input=ATCATATA test_value=0.269
sequence_input=CACCACGG test_value=-0.325
sequence_input=AACAATAC test_value=0.187
sequence_input=ATTACGAC test_value=0.232
sequence_input=GTTATACA test_value=0.181
sequence_input=CCGCGCGA test_value=0.186
sequence_input=GTTAGTCA test_value=0.0867
sequence_input=GTTAGTTA test_value=0.225
sequence_input=GAATAATC test_value=0.221
sequence_input=TTCTCCAA test_value=-0.0656
sequence_input=ATTAATCA test_value=0.263
sequence_input=AGATGATC test_value=0.119
sequence_input=GCGCGCGA test_value=0.104
sequence_input=GTTACGAA test_value=0.16
sequence_input=AAAATTAA test_value=0.105
sequence_input=TAATAATA test_value=0.274
sequence_input=GTTAATCA test_value=0.239
sequence_input=ATTAGTCA test_value=0.341
sequence_input=GAATAATA test_value=0.291
sequence_input=AAAATCAG test_value=0.00782
sequence_input=CCGTGTAC test_value=0.102
sequence_input=GGCTGTCA test_value=-0.21
sequence_input=AGTACGAA test_value=0.167
sequence_input=ATGAATAA test_value=0.142
sequence_input=CTTAGTAA test_value=0.392
sequence_input=ACCAATAT test_value=0.323
sequence_input=ATTAATCC test_value=0.18
sequence_input=AGTCGAGG test_value=-0.168
sequence_input=ATTATATA test_value=0.333
sequence_input=ATTTTGTG test_value=0.139
sequence_input=GTAGGGAA test_value=0.00147
sequence_input=CAATCCCC test_value=0.0168
sequence_input=ATGCTACA test_value=-0.0162
sequence_input=ATTATATC test_value=0.197
sequence_input=AGGAGACC test_value=-0.201
sequence_input=GACTACCC test_value=-0.127
sequence_input=ACAGTTGG test_value=0.016
sequence_input=ATTACGAA test_value=0.295
sequence_input=AACCCAGA test_value=-0.0895
sequence_input=GCGCGCGC test_value=0.306
sequence_input=CAACCGCG test_value=0.269
sequence_input=CAATCCTC test_value=-0.129
sequence_input=ATTAGTCG test_value=0.193
sequence_input=CAATAATG test_value=0.0624
sequence_input=CTTTTGTA test_value=0.205
sequence_input=GTTAGTAA test_value=0.111
